METHOD_NOTES: coupled detection enzyme interference, dose response, artefact control for MgcRacGAP inhibitor project, biochemical, coupled enzyme counter-screen (AID 624351);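 also: signal is the ADP detection kit reading of free GDP without any GAP enzyme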
TEST_CONTEXT: ADP Hunter coupled enzyme counter-screen, fluorescence, no MgcRacGAP; series mostly up to 80 µM
Out of some 2,400 compounds screened, about 1,400 (58%) were called active. So high a share suggests a set chosen from earlier hits. The list shows a part of the results.
PARAMETER: IC50

COMPOUND | RECORDED_RESULT
C=CCc1cc(Cl)ccc1OCCNCCN1CCOCC1 | inactive
COc1ccc(NC2CCCN(C(=O)C3(C)CCCCC3)C2)cc1 (stereo not given) | 67.2 µM (active)
O=C1Nc2ccccc2C1=Nc1ccc2[nH]c3ccccc3c2c1 | 23.4 µM (active)
COCCCn1c(=S)[nH]c2sc3c(c2c1=O)CCCC3 | 30.9 µM (active)
O=[N+]([O-])c1cc(Br)c(O)c(C=Nc2ccc(N3CCOCC3)cc2)c1 | 13.4 µM (active)
COc1ccc(OC)c2c(C)c(C)[nH]c12 | 28.7 µM (active)
C=CCc1cc(OC)ccc1OCCN1CC(C)OC(C)C1 (stereo not given) | inactive
Oc1ccc(N=Cc2cc(Br)c(N3CCOCC3)o2)cc1 | 64.7 µM (active)
Nn1c(=S)[nH]c2sc3c(c2c1=O)CCCC3 | 67.3 µM (active)
COc1ccc(OCC(O)CN2CCCC2)cc1 (stereo not given) | inactive
COc1ccccc1NS(=O)(=O)c1ccc(C)c(C(=O)N2CCN(c3ccc(O)cc3)CC2)c1 | 23.6 µM (active)
CC(=O)Nc1ccc(N=Nc2ccc(O)cc2)cc1 | 24.5 µM (active)
COc1cc(/C(C)=N/NC(=O)C(O)(c2ccccc2)c2ccccc2)ccc1O | 79.7 µM (active)
COc1ccc(NCCC(O)c2ccc(Cl)cc2)cc1 (stereo not given) | 28 µM (active)
O=C1CCCC(O)=C1C=Nc1ccc(O)cc1 | 18.6 µM (active)
Oc1ccc(/C=N/Nc2nccnc2Cl)cc1 | 21.1 µM (active)
CC(=C/c1ccccc1)/C=N/n1c(-c2ccco2)n[nH]c1=S | 66.7 µM (active)
Cc1ccc(C(C2=C(O)CC(C)(C)CC2=O)C2C(=O)CC(C)(C)CC2=O)s1 (stereo not given) | inactive
Oc1ccc(/C=N/Nc2nccnc2Cl)c(O)c1 | 12.8 µM (active)
CCOc1cc(/C=N/Nc2ncc(C)c(=O)[nH]2)ccc1O | 38.9 µM (active)
Oc1ccc(N=Nc2ccccc2)cc1 | 78.2 µM (active)
COc1ccc(NC2CCCN(C(=O)c3ccc(C(C)=O)s3)C2)cc1 (stereo not given) | 80.4 µM (active)
O=C1CC(c2ccccc2)CC(O)=C1C=Nc1ccc(O)cc1 (stereo not given) | 28.9 µM (active)
COc1ccc(CN2CCC(N3CC(C)OC(C)C3)CC2)c(OC)c1OC (stereo not given) | inactive
CC1(C)C2CCC(CN=C(N)CSS(=O)(=O)O)C1C2 (stereo not given) | inactive
CC1(C)CC(=O)C(C=Nc2ccc(N)cc2)=C(O)C1 | 82.4 µM (active)
Cc1cc(-c2n[nH]c(=S)n2/N=C/c2ccccc2[N+](=O)[O-])n[nH]1 | 83.5 µM (active)
CC1(C)CC(=O)C(C=Nc2ccc(O)cc2)=C(O)C1 | 17.4 µM (active)
CCN1CCCC1CNCC(=O)Nc1ccc(OC(F)(F)F)cc1 (stereo not given) | inactive
CC1(C)CC(=O)C2=C(C1)OC1=C(C(=O)CC(C)(C)C1)C2c1ccc(O)cc1O | inactive

====

METHOD_NOTES: coupled detection enzyme interference, dose response, artefact control for MgcRacGAP inhibitor project, biochemical, coupled enzyme counter-screen (AID 624351);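 also: signal is the ADP detection kit reading of free GDP without any GAP enzyme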
TEST_CONTEXT: ADP Hunter coupled enzyme counter-screen, fluorescence, no MgcRacGAP; series mostly up to 80 µM
Among all 2,400 compounds or so, about 1,400 (58%) were called active. The set was probably picked from earlier hits. This is one part of the list.
PARAMETER: IC50

COMPOUND | PARAMETER | RECORDED_RESULT
Nc1ccc(Nc2nc(-c3cc4ccccc4oc3=O)cs2)cc1 | IC50 | inactive
Cc1nc(C)c(CC(=O)N/N=C/c2ccc(O)cc2)c(=O)[nH]1 | IC50 | 75.8 µM (active)
CCOc1cc(/C=N/NC(=O)Nc2ccccc2)ccc1O | IC50 | 33 µM (active)
Nc1ccc2nc(N)sc2c1 | IC50 | 11 µM (active)
OCCN(CCO)c1ccc2ccccc2c1 | IC50 | 65 µM (active)
O=c1oc2ccccc2cc1-c1csc(Nc2ccc(O)cc2)n1 | IC50 | 58 µM (active)
NS(=O)(=O)c1ccc(Nc2nc(-c3ccc(O)cc3)cs2)cc1 | IC50 | 20.9 µM (active)
O=C(Nc1ccc(O)cc1)c1ccc(C(=O)c2ccccc2)o1 | IC50 | 26.1 µM (active)
COc1ccc(CN2CCN(C(C)C(=O)N(C)Cc3cccc(F)c3)CC2)cc1OC (stereo not given) | IC50 | inactive
Nc1ccc(-c2nc3ccc(N)cc3s2)cc1 | IC50 | 75.8 µM (active)
COc1cc(/C=N/N2C(=O)c3ccccc3C2=O)ccc1O | IC50 | 41.6 µM (active)
Nc1nc(=S)ss1 | IC50 | inactive
C/C(=C\C(=O)c1cccnc1)Nc1ccc(O)cc1 | IC50 | 13.6 µM (active)
Cc1ccc(N2C(N)=C(C#N)C3(C(=O)N(C)c4ccccc43)C3=C2CC(C)(C)CC3=O)cc1Cl (stereo not given) | IC50 | inactive
CCOc1cc(C=NNC(=O)CCCC(=O)NN=Cc2ccc(O)c(OCC)c2)ccc1O | IC50 | 55.2 µM (active)
OCCN1CCN(Cc2ccc3ccccc3c2)CC1 | IC50 | inactive
CCOc1cc(/C=N/NC(=O)CCCC(=O)NC2CCCCC2)ccc1O | IC50 | 62.2 µM (active)
CCCN(CCO)CCCc1ccccc1 | IC50 | inactive
COc1cc(OC)c(C(=O)Nc2ccc(N(C)C)cc2)cc1OC | IC50 | 27.2 µM (active)
Cc1ccc(NC(=O)C2=C(c3ccccc3)S(=O)(=O)CCS2(=O)=O)cc1 | IC50 | inactive
C=C1c2c(Cl)ccc(O)c2C(O)=C2C(=O)[C@]3(O)C(O)=C(C(N)=O)C(=O)[C@@H](N(C)C)[C@@H]3[C@@H](O)C12 (stereo not given in full) | IC50 | inactive
CCn1c2ccccc2c2cc(N)ccc21 | IC50 | inactive
Cc1c(N(C)C)nc2ccccc2c1N | IC50 | inactive
Cc1oc(-c2ccccc2)cc1C(=O)Nc1ccc(N(C)C)cc1 | IC50 | 65.5 µM (active)
c1ccc(CCNCCCOc2cccc3ccccc23)cc1 | IC50 | inactive

====

METHOD_NOTES: coupled detection enzyme interference, dose response, artefact control for MgcRacGAP inhibitor project, biochemical, coupled enzyme counter-screen (AID 624351);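 also: signal is the ADP detection kit reading of free GDP without any GAP enzyme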
TEST_CONTEXT: ADP Hunter coupled enzyme counter-screen, fluorescence, no MgcRacGAP; series mostly up to 80 µM
Hit rate of the full screen: of about 2,400 compounds, about 1,400 (58%) were called active.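 Rule for the calls: active = inhibition of 30% or more at any tested dose; inconclusive = primary hits over the limit that were never retested; inactive = the rest.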 The set was probably picked from earlier hits. This is one part of the list.
Possible outcomes: active, inactive

COMPOUND | ASSIGNED_CATEGORY
NS(=O)(=O)c1ccc(CCNCC(=O)N2CCC(Cc3ccccc3)CC2)cc1 | inactive
COc1cc(/C=N/NC(=O)C(=O)NCC2CCCO2)ccc1O (stereo unspecified) | active
N#Cc1c(Nc2ccc(Cl)cc2)s[nH]c1=O | inactive
COc1cc(CN2CCC(C(=O)N3CCN(c4ccccc4F)CC3)CC2)ccc1O | inactive
COc1ccc(C(=O)Nc2ccc(N3CCCCCC3)cc2)cc1S(=O)(=O)N1CCOCC1 | inactive
O=C(c1cc(C2CC2)nn1-c1ccccc1)N1CCN(c2ccc(O)cc2)CC1 | active
Cc1cccc(-n2c(=O)c3ccccc3n3c(=S)[nH]nc23)c1C | active
COc1cc(/C=C/C(=O)OCC(=O)N2CC3(C)CC2CC(C)(C)C3)ccc1O (stereo unspecified) | active
Oc1ccc(/C=N/NC(=S)NCC2CCCO2)cc1 (stereo unspecified) | active
COc1ccc(-c2ccc(CCC(=O)O)n2-c2ccc(O)cc2)cc1 | inactive
CCOc1cc(N2CCOCC2)c(OCC)cc1NCC(=O)N1CCN(Cc2ccccc2)CC1 | inactive

====

METHOD_NOTES: coupled detection enzyme interference, dose response, artefact control for MgcRacGAP inhibitor project, biochemical, coupled enzyme counter-screen (AID 624351);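 also: signal is the ADP detection kit reading of free GDP without any GAP enzyme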
TEST_CONTEXT: ADP Hunter coupled enzyme counter-screen, fluorescence, no MgcRacGAP; series mostly up to 80 µM
The whole screen tested about 2,400 compounds, of which about 1,400 (58%) were called active.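 The calls were made as follows: active = inhibition of 30% or more at any tested dose; inconclusive = primary hits over the limit that were never retested; inactive = the rest.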 So high a share suggests a set chosen from earlier hits. The list shows a part of the results.
Possible outcomes: active, inactive

MOLECULE | ASSIGNED_CATEGORY
COc1cc(-c2nc3cnccn3c2Nc2c(C)cccc2C)ccc1O | active
O=C1N=c2ccccc2=C1c1sc(Nc2ccc(O)cc2)nc1O | inactive
COc1ccccc1OCCCCCCN1CCOCC1 | inactive
COc1cc(/C=N/NC(=O)c2ccc(-n3cccc3)cc2)ccc1O | active
CCCC1=NN2C(=N)/C(=C\c3ccc(SCc4ccco4)o3)C(=O)N=C2S1 | inactive
Cc1ccc(C)c(-n2sc3ccc(F)cc3c2=O)c1 | inactive
CC[n+]1c(/C=C2\Sc3ccccc3N2C)ccc2cccc(C)c21 | inactive
COc1cc(-c2nc3ccccn3c2NCC2CCCO2)ccc1O (stereo unspecified) | inactive
O=C(NN=Cc1ccc(O)cc1)c1ccccc1NS(=O)(=O)c1cccs1 | active
COc1ccc2[nH]c3c(=O)n(Cc4ccc(C(=O)N5CCC(C(N)=O)CC5)cc4)c(=S)[nH]c3c2c1 | active
C=CCc1cc(C)ccc1OCCCn1ccnc1 | inactive
Cc1ccc(S(=O)(=O)N[C@H](C(=O)OCn2nnc3ccccc3c2=O)C(C)C)cc1 | inactive
CCOC(=O)c1sc2nc(CSc3ccccc3)nc(N3CCCN(C)CC3)c2c1C | inactive
COc1ccc(N2CCN(C(=O)CCCn3c(=O)c4cccn4c4cccnc43)CC2)cc1 | inactive
Cc1cc(=O)oc2c(O)c(O)ccc12 | active
O=c1c2ccccc2sn1-c1ccccc1F | inactive
Cc1ccc(OC(=S)Nc2ccc(O)cc2)cc1 | active
Oc1ccc(NC(=S)Nc2ccc(O)cc2)cc1 | active
COc1ccccc1NC(=O)NNC(=O)c1ccc2ccccc2c1O | inactive
CN(C)S(=O)(=O)c1cc(NC(=O)CNCCN2CCOCC2)ccc1Cl | inactive
Cc1cc(N)c2cc(NC(=O)/C=C/c3ccccc3Cl)ccc2n1 | inactive
CC(=O)Nc1ccc(OC(=O)c2cc3ccccc3oc2=O)cc1 | inactive
COc1ccc(-c2cn[nH]c2-c2ccc(O)cc2O)cc1OC | active
COc1ccc(CN2CCCC(C(=O)N3CCCC3)C2)cc1 (stereo unspecified) | inactive
CCN(CC)CCn1c2ccccc2c(=O)c2c(O)ccc(O)c21 | inactive
Clc1nc(NCc2cccnc2)nc(N2CCOCC2)n1 | inactive
